B1: PSD2 (parent)
chain: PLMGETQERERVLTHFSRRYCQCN

Variants of: B1
Assay: protein stability index of a GFP-peptide fusion (GPS, HEK-293T) (PSI 1-6); higher = more stable;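 further: lentivirally expressed fusions sorted by FACS into six bins by GFP to DsRed ratio, PSI derived from sequencing read proportions per bin multiplied by bin number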
Conditions: c terminus: a fixed tail appended
protein stability index: recorded values
API note: the answer field is a bare number with no unit suffix.

VARIANT CODE | protein stability index
M3F | 2.77
E5I | 2.64
T6W | 2.83

stdin: Look up protein stability index for this variant: Q22T
stdout: 3.08

stdin: Proceed to L2T
stdout: 3.01

stdin: What do we get for E10R ?
stdout: 1.82

stdin: Lookup Q22E
stdout: 3.96

stdin: # repeat for Y20I
stdout: 2.62

stdin: Try the variant N24R
stdout: 2.14

stdin: Same question, R18L this time
stdout: 2.24

stdin: Also check P1A
stdout: 1.96
